// values below are reported combination Emax
Test system: NCI-H3122 (Lung Adenocarcinoma)
Assay: combination Emax (second highest fraction inhibited in the dose matrix, 72 h); higher = more inhibition; extreme values may be limits of the assay
Just the number, please.

What does the data say about its combination Emax? Entry: C[C@@H](Nc1cc(F)cc(F)c1)c1cc(C(=O)N(C)C)cc2c(=O)cc(N3CCOCC3)oc12 [AZD8186] + CC(=O)c1c(C)c2cnc(Nc3ccc(N4CCNCC4)cn3)nc2n(C2CCCC2)c1=O [Palbociclib] (first compound max 10 µM, 7x7, partner max 10 µM)
0.742

---

Tested on: KY821 (Acute Myeloid Leukemia)
Experiment: Bliss excess, mean over the matrix (fraction); higher = more synergy
Listed below: Bliss excess values for each entry.
I only need the number, thanks.

I have this molecule here, CS(=O)(=O)CCNCc1ccc(-c2ccc3ncnc(Nc4ccc(OCc5cccc(F)c5)c(Cl)c4)c3c2)o1 [Lapatinib] + NC1(c2ccc(-c3nc4ccn5c(=O)[nH]nc5c4cc3-c3ccccc3)cc2)CCC1 [MK-2206] (first compound max 10 µM, 7x7, partner max 10 µM) , and I need its recorded Bliss excess.
0.0724

Follow-up entry: Cn1cnc2c(F)c(Nc3ccc(Br)cc3Cl)c(C(=O)NOCCO)cc21 [Selumetinib] + CC(C)n1c(=O)n(C)c2cnc3cc(F)c(-c4ccc(OCCCN5CCCCC5)nc4)cc3c21 [AZD1390] (first compound max 10 µM, 7x7, partner max 0.3 µM)
0.0169

---

Tested on: G-361 (Melanoma)
Test: Bliss excess, mean over the matrix (fraction); higher = more synergy
Recorded measurements of Bliss excess, one per entry

molecule: CN(C)CCCOc1ccc(-c2ccc3ncc4c(c3c2)n(C2CCOCC2)c(=O)n4C)cn1 [AZD0156] + O=C(c1cc(Cc2n[nH]c(=O)c3ccccc23)ccc1F)N1CCN(C(=O)C2CC2)CC1 [Olaparib] (first compound max 3 µM, partner max 3 µM)
measuredParameter: Bliss excess
result: 0.0857
--
molecule: CN(CCO)CC[C@H](CSc1ccccc1)Nc1ccc(S(=O)(=O)NC(=O)c2ccc(N3CCC([C@@H](O)c4ccccc4-c4ccc(Cl)cc4)CC3)cc2)cc1S(=O)(=O)C(F)(F)F [AZD4320] + CN(C)CCCOc1ccc(-c2ccc3ncc4c(c3c2)n(C2CCOCC2)c(=O)n4C)cn1 [AZD0156] (first compound max 1 µM, 7x7, partner max 1 µM)
measuredParameter: Bliss excess
result: 0.001

# context switch: different molecule, same Bliss excess
Which Bliss excess value is on record for CC(=O)c1c(C)c2cnc(Nc3ccc(N4CCNCC4)cn3)nc2n(C2CCCC2)c1=O [Palbociclib] + CN(CC[C@H](CSC1=CC=CC=C1)NC2=C(C=C(C=C2)S(=O)(=O)NC(=O)C3=CC=C(C=C3)N4CCC(CC4)[C@H](C5=CC=CC=C5C6=CC=C(C=C6)Cl)O)S(=O)(=O)C(F)(F)F)CCO [AZD4320] (first compound max 10 µM, 7x7, partner max 1 µM) ?
-0.0222

---

Tested on: 8505C (Thyroid Gland Carcinoma)
Test: Bliss excess, mean over the matrix (fraction); higher = more synergy
measuredParameter: Bliss excess
# output: bare number, no unit

compound: COc1cccc2c1C(=O)c1c(O)c3c(c(O)c1C2=O)C[C@@](O)(C(=O)CO)C[C@@H]3O[C@H]1C[C@H](N)[C@H](O)[C@H](C)O1 [Doxorubicin] + Cc1cc2ncnn2cc1Nc1ncc2c(n1)n(C1CCOCC1)c(=O)n2C [AZD7648] (first compound max 1 µM, 7x7, partner max 10 µM)
Bliss excess: 0.0859
//
compound: COc1nnc2ccc(N3CCC(c4ccc(OCCN5CCN(C)C(=O)[C@H]5C)cc4)CC3)nn12 [AZD5153] + CN(CC[C@H](CSC1=CC=CC=C1)NC2=C(C=C(C=C2)S(=O)(=O)NC(=O)C3=CC=C(C=C3)N4CCC(CC4)[C@H](C5=CC=CC=C5C6=CC=C(C=C6)Cl)O)S(=O)(=O)C(F)(F)F)CCO [AZD4320] (first compound max 1 µM, 7x7, partner max 1 µM)
Bliss excess: 0.0185
//
compound: CC1(C)CCC(CN2CCN(c3ccc(C(=O)NS(=O)(=O)c4ccc(NCC5CCOCC5)c([N+](=O)[O-])c4)c(Oc4cnc5[nH]ccc5c4)c3)CC2)=C(c2ccc(Cl)cc2)C1 [Venetoclax] + COc1cc(Nc2ncc3c(n2)-c2ccc(Cl)cc2C(c2c(F)cccc2OC)=NC3)ccc1C(=O)O [Alisertib] (first compound max 1 µM, 7x7, partner max 10 µM)
Bliss excess: 0.0151
//
compound: Cc1c2c(nn1C)CSCc1cc(n(C)n1)CSc1cc(c3ccccc3c1)OCCCc1c(C(=O)O)n(C)c3c-2c(Cl)ccc13 [AZD5991] + CN(C)CCCOc1ccc(-c2ccc3ncc4c(c3c2)n(C2CCOCC2)c(=O)n4C)cn1 [AZD0156] (first compound max 1 µM, 7x7, partner max 1 µM)
Bliss excess: -0.137
//
compound: COc1cccc(OCCCN)c1-c1cc(Nc2cnc(C#N)cn2)n[nH]1 [Prexasertib] + O=C(c1cc(Cc2n[nH]c(=O)c3ccccc23)ccc1F)N1CCN(C(=O)C2CC2)CC1 [Olaparib] (first compound max 1 µM, 7x7, partner max 10 µM)
Bliss excess: -0.0434
//
compound: Cc1c2c(nn1C)CSCc1cc(n(C)n1)CSc1cc(c3ccccc3c1)OCCCc1c(C(=O)O)n(C)c3c-2c(Cl)ccc13 [AZD5991] + CC1(C)CCC(CN2CCN(c3ccc(C(=O)NS(=O)(=O)c4ccc(NCC5CCOCC5)c([N+](=O)[O-])c4)c(Oc4cnc5[nH]ccc5c4)c3)CC2)=C(c2ccc(Cl)cc2)C1 [Venetoclax] (first compound max 1 µM, 7x7, partner max 1 µM)
Bliss excess: -0.0253

Query (compound): COc1nnc2ccc(N3CCC(c4ccc(OCCN5CCN(C)C(=O)[C@H]5C)cc4)CC3)nn12 [AZD5153] + CCN(CCO)CCCOc1ccc2c(Nc3cc(CC(=O)Nc4cccc(F)c4)[nH]n3)ncnc2c1 [AZD2811] (first compound max 1 µM, 7x7, partner max 1 µM) ; field requested: Bliss excess
0.03

---

Test system: KU812 (Chronic Myelogenous Leukemia)
Experiment: combination Emax (second highest fraction inhibited in the dose matrix, 72 h); higher = more inhibition; extreme values may be limits of the assay
Overview of reported combination Emax across a group of molecules:

Study these solved cases before continuing.
molecule: Cc1c2c(nn1C)CSCc1cc(n(C)n1)CSc1cc(c3ccccc3c1)OCCCc1c(C(=O)O)n(C)c3c-2c(Cl)ccc13 [AZD5991] + CCN(CCO)CCCOc1ccc2c(Nc3cc(CC(=O)Nc4cccc(F)c4)[nH]n3)ncnc2c1 [AZD2811] (first compound max 1 µM, 7x7, partner max 1 µM)
combination Emax: 0.851

molecule: COc1nnc2ccc(N3CCC(c4ccc(OCCN5CCN(C)C(=O)[C@H]5C)cc4)CC3)nn12 [AZD5153] + Cn1cnc2c(F)c(Nc3ccc(Br)cc3Cl)c(C(=O)NOCCO)cc21 [Selumetinib] (first compound max 1 µM, 7x7, partner max 10 µM)
combination Emax: 0.994

Next:
combination Emax lookup needed for CC1(C)CCC(CN2CCN(c3ccc(C(=O)NS(=O)(=O)c4ccc(NCC5CCOCC5)c([N+](=O)[O-])c4)c(Oc4cnc5[nH]ccc5c4)c3)CC2)=C(c2ccc(Cl)cc2)C1 [Venetoclax] + CN(C)CCCOc1ccc(-c2ccc3ncc4c(c3c2)n(C2CCOCC2)c(=O)n4C)cn1 [AZD0156] (first compound max 1 µM, 7x7, partner max 1 µM) , thanks.
0.403

---

The following molecules are shown together with reported Bliss excess values.
System: MOLM-13 (Acute Myeloid Leukemia)
Assay: Bliss excess, mean over the matrix (fraction); higher = more synergy
When you answer, write just the number.

molecule: CC1(C)CCC(CN2CCN(c3ccc(C(=O)NS(=O)(=O)c4ccc(NCC5CCOCC5)c([N+](=O)[O-])c4)c(Oc4cnc5[nH]ccc5c4)c3)CC2)=C(c2ccc(Cl)cc2)C1 [Venetoclax] + C=CCn1c(=O)c2cnc(Nc3ccc(N4CCN(C)CC4)cc3)nc2n1-c1cccc(C(C)(C)O)n1 [AZD1775] (first compound max 1 µM, partner max 1 µM)
measuredParameter: Bliss excess
numericReadout: 0.0122
--
molecule: CCN(CCO)CCCOc1ccc2c(Nc3cc(CC(=O)Nc4cccc(F)c4)[nH]n3)ncnc2c1 [AZD2811] + C=CCn1c(=O)c2cnc(Nc3ccc(N4CCN(C)CC4)cc3)nc2n1-c1cccc(C(C)(C)O)n1 [AZD1775] (first compound max 1 µM, partner max 1 µM)
measuredParameter: Bliss excess
numericReadout: -0.0698
--
molecule: Cc1c2c(nn1C)CSCc1cc(n(C)n1)CSc1cc(c3ccccc3c1)OCCCc1c(C(=O)O)n(C)c3c-2c(Cl)ccc13 [AZD5991] + Cn1cnc2c(F)c(Nc3ccc(Br)cc3Cl)c(C(=O)NOCCO)cc21 [Selumetinib] (first compound max 1 µM, 7x7, partner max 3 µM)
measuredParameter: Bliss excess
numericReadout: 0.0409
--
molecule: CC(=O)c1c(C)c2cnc(Nc3ccc(N4CCNCC4)cn3)nc2n(C2CCCC2)c1=O [Palbociclib] + CN(CC[C@H](CSC1=CC=CC=C1)NC2=C(C=C(C=C2)S(=O)(=O)NC(=O)C3=CC=C(C=C3)N4CCC(CC4)[C@H](C5=CC=CC=C5C6=CC=C(C=C6)Cl)O)S(=O)(=O)C(F)(F)F)CCO [AZD4320] (first compound max 10 µM, 7x7, partner max 1 µM)
measuredParameter: Bliss excess
numericReadout: -0.0259
--
molecule: COc1cc2c(cc1OCCCCCOc1cc3c(cc1OC)C(=O)N1C=C(C)C[C@H]1C=N3)N=C[C@@H]1CC(C)=CN1C2=O [SG3199] + O=C(c1cc(Cc2n[nH]c(=O)c3ccccc23)ccc1F)N1CCN(C(=O)C2CC2)CC1 [Olaparib] (first compound max 0.001 µM, 7x7, partner max 10 µM)
measuredParameter: Bliss excess
numericReadout: 0.0049
--
molecule: Cc1c2c(nn1C)CSCc1cc(n(C)n1)CSc1cc(c3ccccc3c1)OCCCc1c(C(=O)O)n(C)c3c-2c(Cl)ccc13 [AZD5991] + CCN(CCO)CCCOc1ccc2c(Nc3cc(CC(=O)Nc4cccc(F)c4)[nH]n3)ncnc2c1 [AZD2811] (first compound max 1 µM, 7x7, partner max 1 µM)
measuredParameter: Bliss excess
numericReadout: 0.024

Shifting focus to the molecule that follows.
Recorded Bliss excess for COc1cccc2c1C(=O)c1c(O)c3c(c(O)c1C2=O)C[C@@](O)(C(=O)CO)C[C@@H]3O[C@H]1C[C@H](N)[C@H](O)[C@H](C)O1 [Doxorubicin] + Cc1cc2ncnn2cc1Nc1ncc2c(n1)n(C1CCOCC1)c(=O)n2C [AZD7648] (first compound max 1 µM, 7x7, partner max 10 µM) , please?
0.0551
